IC50 values for the compounds below.
TEST SYSTEM: Phospho-EGFR (Tyr1068) in H1975 C797S cells (CRISPR-edited EGFR C797S) (Homo sapiens, UniProt P00533, C797S/L858R/T790M)
Sequence (P00533 25-1210 T790M/C797S/L858R): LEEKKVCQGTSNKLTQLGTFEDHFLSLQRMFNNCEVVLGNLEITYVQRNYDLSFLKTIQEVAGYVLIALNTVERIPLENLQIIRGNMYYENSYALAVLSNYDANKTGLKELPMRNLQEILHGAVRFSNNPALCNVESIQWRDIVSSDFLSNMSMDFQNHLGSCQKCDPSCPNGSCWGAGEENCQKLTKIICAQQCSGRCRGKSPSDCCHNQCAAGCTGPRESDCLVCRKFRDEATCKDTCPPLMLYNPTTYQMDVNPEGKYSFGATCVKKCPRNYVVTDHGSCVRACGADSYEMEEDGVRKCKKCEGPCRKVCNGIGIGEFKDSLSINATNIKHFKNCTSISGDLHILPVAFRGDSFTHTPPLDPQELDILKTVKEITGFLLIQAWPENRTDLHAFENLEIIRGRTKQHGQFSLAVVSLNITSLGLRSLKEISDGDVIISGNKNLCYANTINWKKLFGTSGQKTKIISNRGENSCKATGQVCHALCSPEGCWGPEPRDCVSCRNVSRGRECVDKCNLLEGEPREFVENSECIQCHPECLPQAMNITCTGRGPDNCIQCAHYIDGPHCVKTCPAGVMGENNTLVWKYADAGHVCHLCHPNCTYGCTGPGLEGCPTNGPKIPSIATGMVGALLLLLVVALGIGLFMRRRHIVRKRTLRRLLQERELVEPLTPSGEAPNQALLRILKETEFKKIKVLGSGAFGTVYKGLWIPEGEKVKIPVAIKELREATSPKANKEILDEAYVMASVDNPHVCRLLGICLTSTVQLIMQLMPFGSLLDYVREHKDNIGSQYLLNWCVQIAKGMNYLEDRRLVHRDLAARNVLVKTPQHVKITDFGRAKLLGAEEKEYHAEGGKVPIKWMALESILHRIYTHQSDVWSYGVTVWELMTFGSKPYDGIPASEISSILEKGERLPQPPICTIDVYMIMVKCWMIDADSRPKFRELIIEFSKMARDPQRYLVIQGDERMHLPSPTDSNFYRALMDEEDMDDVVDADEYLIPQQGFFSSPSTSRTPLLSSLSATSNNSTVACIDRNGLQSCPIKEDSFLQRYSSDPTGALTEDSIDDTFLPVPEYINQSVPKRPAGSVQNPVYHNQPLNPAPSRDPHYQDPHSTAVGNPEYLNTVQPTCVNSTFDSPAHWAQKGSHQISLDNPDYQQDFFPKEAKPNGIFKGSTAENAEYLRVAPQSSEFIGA
METHOD: HTRF pEGFR/total EGFR in H1975 C797S cells
CONDITION: ratio pEGFR/total EGFR, compound 3 hours

Recorded results for 2 compounds are shown here.
C=Cc1c(-c2ccccc2Cl)c(=O)n(C)c2nc(Nc3ccc(OCCN(C)C)cc3)ncc12 > 3000 nM
C#Cc1cc(=O)n(C)c2nc(Nc3ccc(N(C)CCN(C)C)c(-c4cnn(C)c4)c3)ncc12 500 to 1000 nM

Looking for the measured IC50 of C#Cc1cc(=O)n(C)c2nc(Nc3ccc(N4CCN(C)CC4)c(OC)c3)ncc12 , can you help?
< 500 nM

Could you do the same for C#Cc1cc(=O)n(C)c2nc(Nc3ccc(N4CCN(C)CC4)c(NC(=O)NC4CCCC4)c3)ncc12 , please?
500 to 1000 nM

---

TEST SYSTEM: Phospho-EGFR (Tyr1068) in A431 cells (Homo sapiens, UniProt P00533)
Construct: endogenous in cells
Sequence (P00533 25-1210): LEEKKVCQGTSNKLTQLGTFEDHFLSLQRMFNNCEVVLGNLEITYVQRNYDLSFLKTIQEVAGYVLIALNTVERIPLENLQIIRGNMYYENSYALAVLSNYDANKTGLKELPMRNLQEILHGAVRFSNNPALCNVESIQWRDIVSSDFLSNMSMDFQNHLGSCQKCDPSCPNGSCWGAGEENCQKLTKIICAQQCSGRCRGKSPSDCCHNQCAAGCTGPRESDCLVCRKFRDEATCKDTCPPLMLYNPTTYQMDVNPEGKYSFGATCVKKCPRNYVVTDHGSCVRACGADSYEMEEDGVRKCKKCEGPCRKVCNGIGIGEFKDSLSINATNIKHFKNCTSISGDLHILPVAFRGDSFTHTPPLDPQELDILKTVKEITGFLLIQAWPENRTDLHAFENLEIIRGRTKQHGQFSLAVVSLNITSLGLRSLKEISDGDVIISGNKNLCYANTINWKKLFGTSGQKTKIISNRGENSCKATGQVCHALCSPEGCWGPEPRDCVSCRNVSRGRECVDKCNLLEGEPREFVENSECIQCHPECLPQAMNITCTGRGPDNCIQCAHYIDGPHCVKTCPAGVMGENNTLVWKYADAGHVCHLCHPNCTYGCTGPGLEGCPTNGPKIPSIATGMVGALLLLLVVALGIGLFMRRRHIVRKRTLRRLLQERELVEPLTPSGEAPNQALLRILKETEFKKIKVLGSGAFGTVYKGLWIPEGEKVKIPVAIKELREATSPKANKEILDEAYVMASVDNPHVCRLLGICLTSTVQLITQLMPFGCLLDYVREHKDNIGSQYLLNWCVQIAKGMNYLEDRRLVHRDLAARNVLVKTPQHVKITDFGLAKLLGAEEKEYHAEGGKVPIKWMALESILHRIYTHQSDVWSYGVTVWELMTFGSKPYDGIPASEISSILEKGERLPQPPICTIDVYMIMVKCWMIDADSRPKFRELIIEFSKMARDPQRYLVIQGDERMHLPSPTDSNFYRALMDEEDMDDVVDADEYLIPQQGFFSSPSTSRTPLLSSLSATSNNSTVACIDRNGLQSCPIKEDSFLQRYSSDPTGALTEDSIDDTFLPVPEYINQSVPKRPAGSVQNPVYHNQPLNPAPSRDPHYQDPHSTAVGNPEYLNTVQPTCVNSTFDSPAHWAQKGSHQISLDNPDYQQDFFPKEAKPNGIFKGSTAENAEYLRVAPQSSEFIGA
METHOD: HTRF pEGFR/total EGFR in A431 cells with EGF stimulation
CONDITION: ratio pEGFR/total EGFR, compound 2.5 hours then 100 ng/ml EGF 30 mins
RESULT TYPE: IC50

Recorded results for 2 compounds are shown here.
COMPOUND	IC50
C#Cc1cc(=O)n(C2CCN(C)C2)c2nc(Nc3ccc(N4CCN(C)CC4)cc3)ncc12 (stereo not shown)	> 3 µM
C#Cc1cc(=O)n(C2CCCC2)c2nc(Nc3cccc4c3CCN(C)C4)ncc12	> 3 µM

Find IC50 (Phospho-EGFR (Tyr1068) in A431 cells (Homo sapiens, UniProt P00533)) for the entry C#Cc1cc(=O)n([C@H]2CC[C@@H](NC(=O)CCC(=O)NC)CC2)c2nc(Nc3ccc(N4CCN(C)CC4)cc3)ncc12
> 3 µM

Could you do the same for C#Cc1cc(=O)n2c3nc(ncc13)Nc1ccc(N3CCN(C)CC3)c(c1)OCCCC2 , please?
0.5 to 1 µM

---

IC50 values for the compounds below.
TEST SYSTEM: Phospho-EGFR (Tyr1068) in H1975 C797S cells (CRISPR-edited EGFR C797S) (Homo sapiens, UniProt P00533, C797S/L858R/T790M)
METHOD: HTRF pEGFR/total EGFR in H1975 C797S cells
CONDITION: ratio pEGFR/total EGFR, compound 3 hours

Recorded results for 6 compounds are shown here.
COMPOUND	IC50
C#Cc1cc(=O)n2c3nc(ncc13)Nc1ccc(N3CCN(C)CC3)c(c1)OCCCC2	< 500 nM
C#Cc1cc(=O)n(-c2ccccc2)c2nc(Nc3ccc(N4CCC(N5CC(F)(CO)C5)CC4)cc3)ncc12	< 500 nM
C#Cc1cc(=O)n(CC2CCNC2=O)c2nc(Nc3ccc(N4CCN(C)CC4)cc3)ncc12 (centres unmarked)	500 to 1000 nM
C#Cc1cc(=O)n([C@H]2CC[C@@H](NC(=O)CC(=O)NC)CC2)c2nc(Nc3ccc(N4CCN(C)CC4)cc3)ncc12	500 to 1000 nM
C#Cc1cc(=O)n(-c2ccc(NC(C)=O)cc2)c2nc(Nc3ccccc3OC)ncc12	> 3000 nM
C#Cc1cc(=O)n2c3nc(ncc13)Nc1ccc(N3CCN(C)CC3)c(c1)CN(C)C(=O)CC2	< 500 nM

Looking for the measured IC50 of C#Cc1c(-c2cccs2)c(=O)n(C)c2nc(Nc3ccc(N4CCN(C)CC4)cc3)ncc12 , can you help?
1000 to 3000 nM

Could you do the same for C#Cc1cc(=O)n(C)c2nc(Nc3ccc(N4CCN(C)CC4)cc3)ncc12 , please?
< 500 nM

---

TEST SYSTEM: Phospho-EGFR (Tyr1068) in A431 cells (Homo sapiens, UniProt P00533)
Construct: endogenous in cells
METHOD: HTRF pEGFR/total EGFR in A431 cells with EGF stimulation
CONDITION: ratio pEGFR/total EGFR, compound 2.5 hours then 100 ng/ml EGF 30 mins
RESULT TYPE: IC50

Recorded results for 10 compounds are shown here.
COMPOUND	TEST SYSTEM	IC50
C#Cc1cc(=O)n([C@H]2CC[C@H](NC(C)=O)CC2)c2nc(Nc3ccc(N4CCN(C)CC4)cc3)ncc12 [Example 87]	Phospho-EGFR (Tyr1068) in A431 cells (Homo sapiens, UniProt P00533)	> 3 µM
C#Cc1cc(=O)n(-c2ccccc2)c2nc(Nc3ccc(N4CCOCC4)cc3)ncc12 [Example 6]	Phospho-EGFR (Tyr1068) in A431 cells (Homo sapiens, UniProt P00533)	1 to 3 µM
C#Cc1c(C)c(=O)n(-c2ccccc2)c2nc(Nc3ccc(N4CCN(C)CC4)cc3)ncc12 [Example 151]	Phospho-EGFR (Tyr1068) in A431 cells (Homo sapiens, UniProt P00533)	1 to 3 µM
C#Cc1cc(=O)n(C2CCCC2)c2nc(Nc3cccc(CN4CCC(CS(C)(=O)=O)CC4)c3)ncc12 [Example 183]	Phospho-EGFR (Tyr1068) in A431 cells (Homo sapiens, UniProt P00533)	> 3 µM
C#Cc1cc(=O)n(-c2ccccc2)c2nc(Nc3ccc(N4CCNC5(CC5)C4)cc3)ncc12 [Example 38]	Phospho-EGFR (Tyr1068) in A431 cells (Homo sapiens, UniProt P00533)	> 3 µM
C#Cc1cc(=O)n([C@H]2CC[C@@H](NC(=O)CC(=O)O)CC2)c2nc(Nc3ccc(N4CCN(C)CC4)cc3)ncc12 [Example 99]	Phospho-EGFR (Tyr1068) in A431 cells (Homo sapiens, UniProt P00533)	> 3 µM
C#Cc1cc(=O)n([C@H]2CC[C@@H](NC(=O)CC(=O)NC)CC2)c2nc(Nc3ccc(N4CCN(C)CC4)cc3)ncc12 [Example 94]	Phospho-EGFR (Tyr1068) in A431 cells (Homo sapiens, UniProt P00533)	> 3 µM
C#Cc1cc(=O)n(-c2ccccc2)c2nc(Nc3ccc(N4CCNC(C)C4)cc3)ncc12 (stereo not drawn) [Example 27]	Phospho-EGFR (Tyr1068) in A431 cells (Homo sapiens, UniProt P00533)	1 to 3 µM
C#Cc1cc(=O)n(-c2ccccc2)c2nc(Nc3ccc(N4CCC(N5CC(COC)C5)CC4)cc3)ncc12 [Example 39]	Phospho-EGFR (Tyr1068) in A431 cells (Homo sapiens, UniProt P00533)	1 to 3 µM
C#Cc1cc(=O)n(C)c2nc(Nc3ccc(N4CCN(C)CC4)c(NC(C)=O)c3)ncc12 [Example 50]	Phospho-EGFR (Tyr1068) in A431 cells (Homo sapiens, UniProt P00533)	> 3 µM

Looking for the measured IC50 of C#Cc1cc(=O)n(-c2ccccc2)c2nc(Nc3ccc(N4CCC(N(C)C)CC4)cc3)ncc12 [Example 33] , can you help?
1 to 3 µM

Could you do the same for C#Cc1c(C)c(=O)n(Cc2cnn(C)c2)c2nc(Nc3ccc(N4CCN(C)CC4)cc3)ncc12 [Example 180] , please?
> 3 µM

Could you do the same for C#Cc1cc(=O)n(C)c2nc(Nc3cc(-c4cnn(C)c4)c(N4CCOCC4)cc3OC)ncc12 [Example 44] , please?
> 3 µM

Could you do the same for C#Cc1cc(=O)n([C@H]2CC[C@@H](NC(=O)Cc3cn[nH]c3)CC2)c2nc(Nc3ccc(N4CCN(C)CC4)cc3)ncc12 [Example 91] , please?
> 3 µM

Could you do the same for C#Cc1cc(=O)n(-c2ccccc2)c2nc(NC3CCN(S(C)(=O)=O)CC3)ncc12 [Example 10] , please?
> 3 µM

---

TEST SYSTEM: Phospho-EGFR (Tyr1068) in A431 cells (Homo sapiens, UniProt P00533)
Construct: endogenous in cells
METHOD: HTRF pEGFR/total EGFR in A431 cells with EGF stimulation
CONDITION: ratio pEGFR/total EGFR, compound 2.5 hours then 100 ng/ml EGF 30 mins
IC50 values for the compounds below.

Recorded results for 3 compounds are shown here.
COMPOUND	TEST SYSTEM	IC50
C#Cc1cc(=O)n2c3nc(ncc13)Nc1ccc(N3CCN(C)CC3)c(c1)CNC(=O)CCC2	Phospho-EGFR (Tyr1068) in A431 cells (Homo sapiens, UniProt P00533)	> 3 µM
C#Cc1cc(=O)n(C)c2nc(Nc3ccc(N4CCN(C)CC4)c(OCCC)c3)ncc12	Phospho-EGFR (Tyr1068) in A431 cells (Homo sapiens, UniProt P00533)	0.5 to 1 µM
C#Cc1cc(=O)n2c3nc(ncc13)Nc1ccc(N3CCN(C)CC3)c(c1)NC(=O)CCC2	Phospho-EGFR (Tyr1068) in A431 cells (Homo sapiens, UniProt P00533)	1 to 3 µM

Looking for the measured IC50 of C#Cc1c(C)c(=O)n(Cc2cccnc2)c2nc(Nc3ccc(N4CCN(C)CC4)cc3)ncc12 [Example 116] , can you help?
1 to 3 µM

Could you do the same for C#Cc1c(-c2cc(OC)ccc2Cl)c(=O)n(C)c2nc(Nc3ccc(N(C)CCN(C)C)cc3)ncc12 , please?
1 to 3 µM

Could you do the same for C#Cc1cc(=O)n(-c2ccccc2)c2nc(Nc3ccc(C4CCN(C)CC4)cc3)ncc12 , please?
1 to 3 µM
